# particulars: buffer, pH 7.4, 24 h
Reported Therm_solubility values follow for various compounds
assay-endpoint: Therm_solubility (µM)

compound | number
O=[N+]([O-])CC(c1ccccc1)c1c(-c2ccccc2)[nH]c2ncccc12 (centres undefined) | 159
O=[N+]([O-])CC(c1ccccn1)c1c(-c2ccccc2)[nH]c2ccccc12 (centres undefined) | 2.8
O=[N+]([O-])CC(c1ccccc1)c1c(-c2ccccc2)[nH]c2ccncc12 (centres undefined) | 23.6
O=[N+]([O-])CC(c1ccccc1)c1c(-c2ccncc2)[nH]c2ccccc12 (centres undefined) | 2.1
O=[N+]([O-])CC(c1ccccc1)c1c(-c2ccccc2)[nH]c2cnccc12 (centres undefined) | 6.8
O=[N+]([O-])CC(c1cccnc1)c1c(-c2ccccc2)[nH]c2ccccc12 (centres undefined) | 1.1
O=[N+]([O-])CC(c1ccncc1)c1c(-c2ccccc2)[nH]c2ccccc12 (centres undefined) | 36.7
O=[N+]([O-])CC(c1ccccc1)c1c(-c2cccnc2)[nH]c2ccccc12 (centres undefined) | 4.9
O=[N+]([O-])CC(c1ccccc1)c1c(-c2ccccc2)[nH]c2cccnc12 (centres undefined) | 11.2
